Attribution: ChEMBL document CHEMBL1201862

system: SF-539; assay: NCI tumour cell line growth inhibition, 48 h
Active and inactive are the calls of the source. Rule as the data show it: active = GI50 up to about 1.1 µM and inactive = higher.
parameterMeasured: GI50

Below, 6 molecules whose answers are already recorded.
Inquiry: Endpoint output: GI50 of "O=[N+]([O-])c1ccc(/C=C/c2csnn2)cc1" . Value?
Reply text: > 100 µM (inactive)

Inquiry: Endpoint output: GI50 of "CC1=CC(=O)/C(=C(/C)NCCN(CCN/C(C)=C2\C(=O)C=C(C)OC2=O)CCN/C(C)=C2\C(=O)C=C(C)OC2=O)C(=O)O1" . Value?
Reply text: > 100 µM (inactive)

Inquiry: Endpoint output: GI50 of "CCCCCCCCCOC(=O)c1cnc(Cl)cn1" . Value?
Reply text: 25.8 µM (inactive)

Inquiry: Endpoint output: GI50 of O=C1NCN(c2ccccc2)C12CCN(CC1COc3ccccc3O1)CC2 (stereo unspecified) . Value?
Reply text: 62.5 µM (inactive)

Inquiry: Endpoint output: GI50 of CN1C(c2ccccc2)CC(=NOCc2ccccc2)CC1c1ccccc1 (stereo unspecified) . Value?
Reply text: 36.9 µM (inactive)

Inquiry: Endpoint output: GI50 of CCOC(=O)C(CS)NC(=O)CCCCCCCC(=O)NC(CS)C(=O)OCC (stereo unspecified) . Value?
Reply text: > 100 µM (inactive)

Next:
Inquiry: Endpoint output: GI50 of "C#CCN(Cc1ccc2nc(-c3ccccc3)c(N)nc2c1)c1cc(OC)c(OC)c(OC)c1" . Value?
Reply text: 36.6 µM (inactive)

Inquiry: Endpoint output: GI50 of [O-][S+](C(c1ccccc1)=P(c1ccccc1)(c1ccccc1)c1ccccc1)c1ccc(Cl)cc1 (stereo unspecified) . Value?
Reply text: 60 µM (inactive)

Inquiry: Endpoint output: GI50 of "c1cc2nnc1SCCSCCCSCCS2" . Value?
Reply text: 20 µM (inactive)

Inquiry: Endpoint output: GI50 of "Cc1ccc(/N=N/c2ccc(N)cc2C)c(S(N)(=O)=O)c1" . Value?
Reply text: > 100 µM (inactive)

Inquiry: Endpoint output: GI50 of "COc1ccc(NC(=O)C(=O)Cc2nc3ccc([N+](=O)[O-])cc3nc2O)c(OC)c1" . Value?
Reply text: > 100 µM (inactive)

###

test system: HCT-15
parameterMeasured: GI50

Below, 4 compounds whose answers are already recorded.
Inquiry: Notebook entry, HCT-15 assay: GI50 of "N#CCCN(CCC#N)c1ccc(C(=O)NN)cc1" = ?
Reply text: > 100 µM

Inquiry: Notebook entry, HCT-15 assay: GI50 of "CCc1cccc(C)c1NC(=O)CC(=O)NNC(N)=S" = ?
Reply text: > 100 µM

Inquiry: Notebook entry, HCT-15 assay: GI50 of "COc1cc(N(Cc2ccc3nc(OC)c(OC)nc3c2)Cc2ccc3nc(OC)c(OC)nc3c2)cc(OC)c1OC" = ?
Reply text: > 50 µM

Inquiry: Notebook entry, HCT-15 assay: GI50 of "C/C=C/C=C/c1nc(C#N)c(N)o1" = ?
Reply text: > 100 µM

Continue with the next compound.
Inquiry: Notebook entry, HCT-15 assay: GI50 of "CCn1c(SCC(=O)NNC(=S)Nc2ccc(C)cc2)nc2ccccc2c1=O" = ?
Reply text: > 100 µM

###

tested on: EKVX; test: NCI tumour cell line growth inhibition, 48 h
Activity calls are given as the source filed them. Cut-off read from the data, not from the text of the source: active = GI50 up to about 1.1 µM and inactive = higher.
Form entry, call: pick from active, inactive

Solved cases below.
Inquiry: For COC(=O)C1=CSC2(S1)C(C(=O)OC)=CSc1c2ss/c1=N\c1ccccc1 (stereo not drawn) , which call appears in the assay record?
Reply text: inactive

Inquiry: For "Cc1nn2c(C(=O)N/N=C/c3ccc([N+](=O)[O-])cc3)c(C)nc2s1" , which call appears in the assay record?
Reply text: inactive

Next:
Inquiry: For "CC(=O)O[C@@H]1CO[C@H]2O[C@H]3[C@@H](C(C=O)=C[C@H](O)[C@@H]4C5=C(C(C)C)CC[C@]5(C)CC[C@@]34C)[C@@]2(O)C1=O" , which call appears in the assay record?
Reply text: active

###

test system: SF-268; experiment: NCI tumour cell line growth inhibition, 48 h
Activity calls are given as the source filed them. Cut-off read from the data, not from the text of the source: active = GI50 up to about 1.1 µM and inactive = higher.
parameterMeasured: GI50

Below, 3 molecules whose answers are already recorded.
Inquiry: Endpoint output: GI50 of CC1C(C#N)(C#N)C(C#N)=C(N)C1(Cl)[N+](=O)[O-] (centres undefined) . Value?
Reply text: 14.9 µM (inactive)

Inquiry: Endpoint output: GI50 of "O=Nc1c(-c2c(O)[nH]c3ccccc23)[nH]c2ccccc12" . Value?
Reply text: 5.5 µM (inactive)

Inquiry: Endpoint output: GI50 of "CCn1c2c(c3c(C(=O)OC)c(O)ccc31)C(=O)c1ccccc1C2=O" . Value?
Reply text: 15.3 µM (inactive)

Continue with the next molecule.
Inquiry: Endpoint output: GI50 of c1ccc2c(c1)SP1Sc3ccccc3P21 (centres undefined) . Value?
Reply text: > 95.3 µM (inactive)

###

test system: NCI-H226; test: NCI tumour cell line growth inhibition, 48 h
The source made the active and inactive calls. No stated cut-off is given here; in the data, active = GI50 up to about 1.1 µM and inactive = higher.
parameterMeasured: GI50

Inquiry: Endpoint output: GI50 of "COc1cc(C2C3=C(CCCC3=O)N(c3ccc(C)cc3)C3=C2C(=O)CCC3)c([N+](=O)[O-])cc1OC" . Value?
Reply text: 76.9 µM (inactive)

Inquiry: Endpoint output: GI50 of "CCCCC(=O)c1c(O)nc2sccn2c1=O" . Value?
Reply text: > 10 µM (inactive)

Inquiry: Endpoint output: GI50 of "O=C(O)c1cc(-c2ccc3c(O)c(O)ccc3c2)ccc1O" . Value?
Reply text: 28 µM (inactive)

Next:
Inquiry: Endpoint output: GI50 of O=C1CC(CC(=O)C2CCCCC2=O)C(=O)N1 (centres undefined) . Value?
Reply text: > 100 µM (inactive)

Inquiry: Endpoint output: GI50 of "CN(C)Cc1cc(C(=O)/C=C/c2ccc(O)cc2)cc(CN(C)C)c1O" . Value?
Reply text: > 100 µM (inactive)

Inquiry: Endpoint output: GI50 of "[O-][S+]1CSSC1" . Value?
Reply text: 26.3 µM (inactive)

Inquiry: Endpoint output: GI50 of O=C(O)C12C3CCC(CC3)C1(C(=O)O)C1CCC2C1 (centres undefined) . Value?
Reply text: > 100 µM (inactive)

Inquiry: Endpoint output: GI50 of Nc1nc(Cl)c(N)c(NCC2(CO)CC(OCc3ccccc3)C2)n1 (centres undefined) . Value?
Reply text: > 100 µM (inactive)

Inquiry: Endpoint output: GI50 of "Cc1ccc2c(c1)C(=O)N(N(C)C)CC(=O)N2" . Value?
Reply text: > 100 µM (inactive)

Inquiry: Endpoint output: GI50 of "NNC(=O)c1cc(Cl)ccc1NC(=O)C12CC3CC(CC(C3)C1)C2" . Value?
Reply text: > 100 µM (inactive)

Inquiry: Endpoint output: GI50 of O=S(=O)(O)C(O)/C=C/c1ccccc1 (centres undefined) . Value?
Reply text: > 100 µM (inactive)

Inquiry: Endpoint output: GI50 of "[O-][n+]1c2c([n+]([O-])c3ccccc31)-c1cccc3cccc-2c13" . Value?
Reply text: > 100 µM (inactive)

Inquiry: Endpoint output: GI50 of CC(=O)O[C@]12CCCCCC1C1(O)C(O)CCC[C@H]12 (some centres undefined) . Value?
Reply text: > 100 µM (inactive)

Inquiry: Endpoint output: GI50 of CC(C)(C)c1cc(C2COC(=O)COCC(=O)OCCOCCOCCO2)cc(C(C)(C)C)c1O (centres undefined) . Value?
Reply text: > 100 µM (inactive)

Inquiry: Endpoint output: GI50 of "Cc1noc(C)c1-n1nc2ccc3nonc3c2n1" . Value?
Reply text: > 81.8 µM (inactive)

Inquiry: Endpoint output: GI50 of "Cc1c(S(=O)(=O)c2ccccc2)c(N)n(Cc2ccccc2)c1C" . Value?
Reply text: > 100 µM (inactive)

Inquiry: Endpoint output: GI50 of "[O-][S@@+]1c2ccc3ccccc3c2N[C@@H]2[C@H]1[C@H]1C=C[C@@H]2C1" . Value?
Reply text: 50.8 µM (inactive)

Inquiry: Endpoint output: GI50 of CC(C)(C)[Si](C)(C)OCC1OC(n2cnc3c(N)ncnc32)CC1O (centres undefined) . Value?
Reply text: 53.1 µM (inactive)

Inquiry: Endpoint output: GI50 of "Cc1ccc(/N=N/c2ccc(N)cc2C)c(S(N)(=O)=O)c1" . Value?
Reply text: > 100 µM (inactive)

###

system: NCI-H460; assay: NCI tumour cell line growth inhibition, 48 h
Active and inactive are the calls of the source. Rule as the data show it: active = GI50 up to about 1.1 µM and inactive = higher.
// reported GI50 for each item listed

Below, 5 molecules whose answers are already recorded.
Inquiry: Endpoint output: GI50 of COC(=O)C(C(=O)C(=O)Nc1c(C)cccc1C)c1cnc2ccccc2n1 (stereo unspecified) . Value?
Reply text: > 100 µM (inactive)

Inquiry: Endpoint output: GI50 of [O-][S+](C(c1ccccc1)=P(c1ccccc1)(c1ccccc1)c1ccccc1)c1ccc(Cl)cc1 (stereo unspecified) . Value?
Reply text: 24.2 µM (inactive)

Inquiry: Endpoint output: GI50 of "COc1ccc(NC(=O)C(=O)Cc2nc3ccc([N+](=O)[O-])cc3nc2O)c(OC)c1" . Value?
Reply text: > 100 µM (inactive)

Inquiry: Endpoint output: GI50 of "O=[N+]([O-])c1ccc(/C=C/c2csnn2)cc1" . Value?
Reply text: > 100 µM (inactive)

Inquiry: Endpoint output: GI50 of C=C1C[C@@H](O)[C@@H](Br)C(C)(C)[C@]12CCC(C)(Cl)C(Br)C2 (stereo partly specified) . Value?
Reply text: 27.3 µM (inactive)

Next:
Inquiry: Endpoint output: GI50 of "COc1cc(Br)cc2cc(-c3cn4ccsc4n3)c(=O)oc12" . Value?
Reply text: 32 µM (inactive)
